Where these numbers come from: patent US9487504B2

Assayed system: recombinant human GST-Syk (Homo sapiens, UniProt P43405)
Construct: purchased Carna Biosciences 08-176
Method: Homogeneous Time-Resolved Fluorescence (HTRF) assay for the recombinant human Syk enzyme
Format: biochemical
Assay setup: ATP 25 μM, 10-dose titration, read-out: rhSYK Activity
Reported IC50 by item:

1. Cc1cc(Nc2nccc(C3CC3)n2)cc(-n2cnc([C@]3(O)CC[C@@H](OC(=O)c4ccccc4)CC3)c2)c1 [Example 42]; ≤ 100 nM
2. Cc1cc(Nc2nccc(C(F)(F)F)n2)cc(-n2cnc(C(=O)O)c2)c1 [Example 78]; ≤ 100 nM
3. Cc1cc(Nc2ncc(F)c(C3CC3)n2)cc(-n2cnc([C@]3(O)CC[C@@H](OC(=O)c4ccccc4)CC3)c2)c1 [Example 60]; 100 to 1000 nM
4. CCCCOC(=O)[C@H]1CC[C@H](C(C)(O)c2cn(-c3cc(C)cc(Nc4nccc(C)n4)c3)cn2)CC1 (relative stereo) [Example 11]; 100 to 1000 nM
5. Cc1cc(Nc2nccc(C(F)(F)F)n2)cc(-n2cnc(C3=CCC(C(=O)O)C(C)(C)C3)c2)c1 (stereo not shown) [Example 4]; ≤ 100 nM
6. Cc1cc(Nc2nccc(C(F)(F)F)n2)cc(-n2cnc(C(C)(C)C(=O)O)c2)c1 [Example 111]; ≤ 100 nM

API: the following record is the query input.
Value of IC50 reported for the molecule Cc1cc(Nc2cc(C)c(F)cn2)nc(-n2cnc([C@]3(O)CC[C@@H](O)CC3)c2)c1 [Example 43] is ≤ 100 nM
